Molecular target: Factor X, P00742
Sequence (P00742 whole entry, looked up): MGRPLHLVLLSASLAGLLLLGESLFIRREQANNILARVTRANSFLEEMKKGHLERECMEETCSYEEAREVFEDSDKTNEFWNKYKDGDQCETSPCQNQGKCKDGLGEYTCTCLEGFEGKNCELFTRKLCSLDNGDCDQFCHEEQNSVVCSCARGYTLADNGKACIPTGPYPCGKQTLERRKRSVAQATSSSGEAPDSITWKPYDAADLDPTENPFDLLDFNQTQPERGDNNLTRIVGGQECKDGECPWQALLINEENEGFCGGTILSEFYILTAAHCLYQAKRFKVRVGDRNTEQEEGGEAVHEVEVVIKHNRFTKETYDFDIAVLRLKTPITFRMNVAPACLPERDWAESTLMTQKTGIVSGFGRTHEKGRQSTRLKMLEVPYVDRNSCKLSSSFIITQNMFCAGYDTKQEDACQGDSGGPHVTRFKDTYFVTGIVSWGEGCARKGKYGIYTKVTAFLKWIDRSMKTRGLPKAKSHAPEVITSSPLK
measured-endpoint: kcat/KM (M⁻¹ s⁻¹)

1. FIXa-Y155F/K228N/R318Y/R338E/R403E/E410N (protein) chain 1: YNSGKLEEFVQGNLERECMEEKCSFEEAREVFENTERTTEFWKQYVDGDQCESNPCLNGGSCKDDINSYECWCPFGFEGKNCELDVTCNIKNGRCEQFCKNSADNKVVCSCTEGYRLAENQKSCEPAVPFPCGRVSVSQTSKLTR chain 2: VVGGEDAKPGQFPWQVVLNGKVDAFCGGSIVNEKWIVTAAHCVETGVNITVVAGEHNIEETEHTEQKRNVIRIIPHHNYNAAINKYNHDIALLELDEPLVLNSYVTPICIADKEYTNIFLKFGSGYVSGWGRVFHKGYSALVLQYLRVPLVDRATCLESTKFTIYNNMFCAGFHEGGRDSCQGDSGGPHVTEVEGTSFLTGIISWGEECAMKGKYGIYTKVSEYVNWIKNKTKLT | 2e+08
2. FIXa-K228N/K247N/N249S/R318Y/R338E/R403E/E410N (protein) chain 1: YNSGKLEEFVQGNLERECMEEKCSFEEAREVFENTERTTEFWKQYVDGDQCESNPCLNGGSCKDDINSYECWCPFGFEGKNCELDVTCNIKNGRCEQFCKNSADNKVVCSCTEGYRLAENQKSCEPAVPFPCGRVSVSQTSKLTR chain 2: VVGGEDAKPGQFPWQVVLNGKVDAFCGGSIVNEKWIVTAAHCVETGVNITVVAGEHNIEETEHTEQNRSVIRIIPHHNYNAAINKYNHDIALLELDEPLVLNSYVTPICIADKEYTNIFLKFGSGYVSGWGRVFHKGYSALVLQYLRVPLVDRATCLESTKFTIYNNMFCAGFHEGGRDSCQGDSGGPHVTEVEGTSFLTGIISWGEECAMKGKYGIYTKVSEYVNWIKNKTKLT | 1.2e+08
